Data origin, for the record: patent US4988687A

- Test system: Ps. aeruginosa AK 109
- assayProtocol: agar plate dilution method, MIC against Ps. aeruginosa AK 109
- Assay type: cell-based
- testSettings: Pseudomonas aeruginosa, AK109, 16 h, read-out: Minimum Inhibitory Concentration (MIC)
Record form. Attribute: MIC. Fill in for each entry.
Number plus unit, in that order.

CC(C)(O/N=C(\C(=O)N[C@@H]1C(=O)N2C(C(=O)[O-])=C(C[n+]3ccccc3)CS[C@H]12)c1csc(N)n1)C(=O)O [Ceftazidime, ceftazidime, reference compound]; 1.56 µg/mL
C=C(O/N=C(\C(=O)NC1C(=O)N2C(C(=O)[O-])=C(CSc3cc[n+](CC(=O)O)cc3)CSC12)c1csc(N)n1)C(=O)O (stereo not drawn) [Example 1]; 3.12 µg/mL
CCON=C(C(=O)NC1C(=O)N2C(C(=O)[O-])=C(CSc3cc[n+](CC(=O)O)cc3)CSC12)c1csc(N)n1 (stereo not drawn) [Reference Example A, reference compound]; 12.5 µg/mL
CO/N=C(\C(=O)N[C@@H]1C(=O)N2C(C(=O)O)=C(COC(C)=O)CS[C@H]12)c1csc(N)n1 [Cefotaxime, cefotaxime, reference compound]; 12.5 µg/mL
Nc1nc(C(=NOCc2ccc(O)c(O)c2)C(=O)NC2C(=O)N3C(C(=O)[O-])=C(CSc4cc[n+](CC(=O)O)cc4)CSC23)cs1 (stereo not drawn) [Example 4]; 1.56 µg/mL

Let us examine a further case.
Find the measured MIC: item Nc1nc(/C(=N/OC(C(=O)O)c2ccccc2)C(=O)NC2C(=O)N3C(C(=O)[O-])=C(CSc4cc[n+](CC(=O)O)cc4)CSC23)cs1 (stereo not drawn) [Example 3] , target or system Ps. aeruginosa AK 109.
6.25 µg/mL

====

Exercise: for every item that follows, state its recorded MIC.
- Test system: Ps. aeruginosa IFO3445
- assayProtocol: agar plate dilution method, MIC against Ps. aeruginosa IFO3445
- Format: cell-based
- testSettings: Pseudomonas aeruginosa; Ps. aeruginosa IFO3445; 10^6 CFU/ml, 37° C., 16 hours; read-out: Minimum Inhibitory Concentration (MIC)
For clarity, give the value followed by its unit.

Nc1nc(C(=NOC(C(=O)O)c2ccc(O)c(O)c2)C(=O)NC2C(=O)N3C(C(=O)[O-])=C(CSc4cc[n+](CC(=O)O)cc4)CSC23)cs1 (stereo not shown) [Example 5]; 0.39 µg/mL
CC(=O)Oc1ccc(C(O/N=C(\C(=O)NC2C(=O)N3C(C(=O)[O-])=C(CSc4cc[n+](CC(=O)O)cc4)CSC23)c2csc(N)n2)C(=O)O)cc1OC(C)=O (stereo not shown) [Example 6]; 0.78 µg/mL
CC(C)(O/N=C(\C(=O)N[C@@H]1C(=O)N2C(C(=O)[O-])=C(C[n+]3ccccc3)CS[C@H]12)c1csc(N)n1)C(=O)O [Ceftazidime, ceftazidime, reference compound]; 0.39 µg/mL

Find the recorded MIC belonging to Nc1nc(/C(=N/OCc2ccccc2)C(=O)NC2C(=O)N3C(C(=O)[O-])=C(CSc4cc[n+](CC(=O)O)cc4)CSC23)cs1 (stereo not shown) [Example 2] and report it.
25 µg/mL

====

For E. coli CSH2 (RK1), measured MIC is reported for the entries below.
Give bare numbers, in µg/mL.

Solved entries (count: 4):
Nc1nc(/C(=N/OC(C(=O)O)c2ccccc2)C(=O)NC2C(=O)N3C(C(=O)[O-])=C(CSc4cc[n+](CC(=O)O)cc4)CSC23)cs1 (centres unmarked) [Example 3]; 0.78
CO/N=C(\C(=O)N[C@@H]1C(=O)N2C(C(=O)O)=C(COC(C)=O)CS[C@H]12)c1csc(N)n1 [Cefotaxime, cefotaxime, reference compound]; 0.025
Nc1nc(/C(=N/Oc2ccccc2)C(=O)NC2C(=O)N3C(C(=O)[O-])=C(CSc4cc[n+](CC(=O)O)cc4)CSC23)cs1 (centres unmarked) [Example 7]; 0.78
Nc1nc(C(=NOCc2ccc(O)c(O)c2)C(=O)NC2C(=O)N3C(C(=O)[O-])=C(CSc4cc[n+](CC(=O)O)cc4)CSC23)cs1 (centres unmarked) [Example 4]; 0.05

Quick one: MIC of CCON=C(C(=O)NC1C(=O)N2C(C(=O)[O-])=C(CSc3cc[n+](CC(=O)O)cc3)CSC12)c1csc(N)n1 (centres unmarked) [Reference Example A, reference compound] ?
0.025
